Examples of molecules with documented solubility kinetic follow.
# PROTOCOL_CONDITIONS: buffer; pH 7.4; 200.0 µM

For orientation, consider the following solved cases.
{"MOLECULE": "Cc1ccc(C(=O)NCCNC(=O)COc2ccc(Cl)cc2)cn1", "solubility kinetic": "> 52.2 µg/mL"}
{"MOLECULE": "Cc1ccc(C(=O)NCC(=O)N2CCCCCC2)cc1", "solubility kinetic": "> 41.2 µg/mL"}
{"MOLECULE": "Cc1ccccc1OC(C)C(=O)N1CCN(c2ccccn2)CC1 (centres undefined)", "solubility kinetic": "> 48.8 µg/mL"}
{"MOLECULE": "CN1CCN(C2CCN(c3cccc(Cl)c3)CC2)CC1CCO (centres undefined)", "solubility kinetic": "36.8 µg/mL"}
{"MOLECULE": "CCNC(=O)NC(=O)C(C)OC(=O)c1ccc(SC)cc1OC (centres undefined)", "solubility kinetic": "> 51.1 µg/mL"}
{"MOLECULE": "CCN(CC)S(=O)(=O)c1ccc(NCCc2ccccn2)nc1", "solubility kinetic": "49.2 µg/mL"}
{"MOLECULE": "C(=C\\c1nc(-c2ccncc2)no1)/c1ccccc1", "solubility kinetic": "3.4 µg/mL"}
{"MOLECULE": "O=C(CCS(=O)(=O)c1ccccc1)Nc1ncc([N+](=O)[O-])s1", "solubility kinetic": "29.2 µg/mL"}
{"MOLECULE": "COc1ccc(C(=O)Nc2ccc(NC(=O)C(C)C)nc2)cc1", "solubility kinetic": "3.1 µg/mL"}
{"MOLECULE": "CCN(CC)C(=O)COCc1cc(-c2ccc3c(c2)OCO3)on1", "solubility kinetic": "> 49.9 µg/mL"}

Recorded solubility kinetic (molecule CCC(C(=O)OCC(=O)NC(=O)NC(C)(C)C)c1ccccc1 (centres undefined) ): 2 µg/mL

Recorded solubility kinetic (molecule CC(C)(C)N1CC(C(=O)Nc2ccc(S(N)(=O)=O)cc2)CC1=O (centres undefined) ): > 50.9 µg/mL

Recorded solubility kinetic (molecule "O=C(NCCCN1CCCC1=O)Nc1cc(Cl)ccc1Cl" ): > 49.5 µg/mL

Recorded solubility kinetic (molecule O=C(O)CC(c1ccccc1F)N1Cc2ccccc2C1=O (centres undefined) ): 43.7 µg/mL

Recorded solubility kinetic (molecule "CS(=O)(=O)O.OC(CCN1CCCCC1)(c1ccccc1)c1ccccc1" ): > 58.7 µg/mL

Recorded solubility kinetic (molecule O=C(NCC1CCCO1)c1ccc(N2C(=O)C3CCCCC3C2=O)cc1 (centres undefined) ): 44.9 µg/mL

Recorded solubility kinetic (molecule CC(Oc1ccccc1)C(=O)NC1CCCCCCC1 (centres undefined) ): > 41.3 µg/mL
